Hello, the source for this data is PubChem BioAssay (NCI), in case you need it.

Test system: UACC-62 melanoma
Experiment: NCI-60 one-dose screen, 48 h (100 = growth as untreated, 0 = no growth, -100 = all killed)
Conditions: 10 µM unless noted
This is part of a sample that, as a whole, favours compounds with a hit. Of some 83,000 tested, about 20% had one in any assay.
Classify: 1.0 when growth is strictly less than 40%; 0.0 when growth is not.

Inquiry: Quick check: does `COc1ccc(C/C(C)=C(\c2ccc(O)cc2)c2ccc(OCCN3CCCCC3)cc2)cc1` have growth under 40%?
Reply text: 0.0

Inquiry: Quick check: does Nc1ncnc2c1N=C(c1ccc(F)cc1)CC(c1cccc(Nc3ccnc4cc(Cl)ccc34)c1)N2 (stereo not given) have growth under 40%?
Reply text: 0.0

Inquiry: Quick check: does `Cc1nn(-c2ccc([N+](=O)[O-])cc2)c2ncnc(N/N=C/c3ccccc3O)c12` have growth under 40%?
Reply text: 1.0

Inquiry: Quick check: does `Cc1ccc(S(=O)(=O)N2CCCN(c3nc(-c4ccccc4)nc4nc(-c5ccccc5)oc34)CC2)cc1` have growth under 40%?
Reply text: 0.0

Inquiry: Quick check: does `COc1cc(Cc2cc(-c3ccccc3)nn(Cc3ccccc3)c2=O)cc(OC)c1OC` have growth under 40%?
Reply text: 1.0

====

Test system: SK-MEL-2 melanoma
Experiment: NCI-60 one-dose screen, 48 h (100 = growth as untreated, 0 = no growth, -100 = all killed)
Settings: 10 µM unless noted
Protocol: Growth inhibition of the SK-MEL-2 human tumor cell line is measured as a screen for anti-cancer activity. Cells are grown in 96 well plates and exposed to the test compound for 48 hours. Compounds are tested at a single concentration, which is 10^-5 M for most compounds. The reported endpoint is percent growth (GI% or GIPRCNT), where numbers from 0 - 100% represent growth inhibition, and numbers from -100% - 0 represent cell death. For example, a value of 40 represents 60% growth inhibition. […]
Compounds without any hit were thinned out: in the full panel of roughly 83,000, 20% have a hit.
If the reported growth equals or exceeds 40%, assign y. If not, assign n.

Inquiry: Can COc1cc(N2C(=O)[C@H](Cl)C2c2ccc(SC)cc2)cc(OC)c1OC (stereo not given in full) be said to have growth at or above 40%?
Reply text: y

Inquiry: Can `c1ccc(-c2ccc3c(c2)C2(CCNCC2)CN3)cc1` be said to have growth at or above 40%?
Reply text: y

Inquiry: Can `COCCn1cc(-c2csc(-c3c[nH]c4ccc(F)cc34)n2)c2cccnc21` be said to have growth at or above 40%?
Reply text: n

Inquiry: Can `N#C/C(=C\c1ccc(-c2cccc(Cl)c2)o1)C(=O)Nc1ncc(Cc2ccc(Cl)cc2)s1` be said to have growth at or above 40%?
Reply text: y

Inquiry: Can Cc1ccc2c(c1)nc(C)n2-c1ncnc2c1CC(C)c1cc(O)ccc1N2C (stereo not given) be said to have growth at or above 40%?
Reply text: n

Inquiry: Can `O=S(=O)(Nc1cc(Sc2nc3ccccc3s2)c(O)c2ccccc12)c1ccc2ccccc2c1` be said to have growth at or above 40%?
Reply text: y

Inquiry: Can CS(=O)/C(C#N)=C\C=C\c1cccc(Cl)c1 (stereo not given) be said to have growth at or above 40%?
Reply text: n

Inquiry: Can `Cc1c(C(C)(C)O)cn2ncnc(Oc3ccc(NC(=O)Nc4ccc(Cl)c(C(F)(F)F)c4)c(F)c3)c12` be said to have growth at or above 40%?
Reply text: y

Inquiry: Can `COCCn1cc(-c2nc(-c3c[nH]c4ncccc34)cs2)c2ccccc21` be said to have growth at or above 40%?
Reply text: y

Inquiry: Can `C=C1C(=O)O[C@H]2[C@H]1CC/C(CNC(=O)Cc1c[nH]c3ccccc13)=C\CC[C@@]1(C)O[C@@H]21` be said to have growth at or above 40%?
Reply text: n

====

Test system: NCI-H226 lung
Experiment: NCI-60 one-dose screen, 48 h (100 = growth as untreated, 0 = no growth, -100 = all killed)
Settings: 10 µM unless noted
Compounds without any hit were thinned out: in the full panel of roughly 83,000, 20% have a hit.
I'd appreciate it if you could supply growth values for the items below.
Answer in %, number only, no unit symbol.

Inquiry: Need growth of `C/C(=C(\c1ccc(OCCN2CCCCCC2)cc1)c1ccc(OC(=O)c2ccccc2)cc1)c1ccc(Cl)cc1` , thanks.
Reply text: 87.5

Inquiry: Need growth of `O=C(CSc1nnnn1-c1ccccc1)Nc1ccc(Oc2ccccc2)cc1` , thanks.
Reply text: 87.5

Inquiry: Need growth of `COc1ccc(Nc2ncc(I)c(NCCCNC(=O)C3CCC3)n2)cc1` , thanks.
Reply text: 5.32

Inquiry: Need growth of `CCCN(CCSSCCNc1nc(N(C)O)nc(N(C)O)n1)c1nc(N(C)O)nc(N(C)O)n1` , thanks.
Reply text: 82.6

Inquiry: Need growth of `COCCn1cc(-c2nc(-c3cc4cccnc4n3C)cs2)c2ccccc21` , thanks.
Reply text: 60.9

Inquiry: Need growth of OC1CSSC1Cn1cnc2c(Nc3ccc(OCc4cccc(F)c4)c(Cl)c3)ncnc21 (centres undefined) , thanks.
Reply text: 4.07

Inquiry: Need growth of `O=C(Cc1ccc(/C=C/C(=O)c2ncc[nH]2)cc1)Nc1cc(F)c(F)c(F)c1` , thanks.
Reply text: 95.2

Inquiry: Need growth of `COc1ccc(/C=C2\CN(C(=O)C(Cl)Cl)C/C(=C\c3ccc(OC)c(OC)c3)C2=O)cc1OC` , thanks.
Reply text: 42.8

Inquiry: Need growth of `COc1cc(C=C2C(=O)NC(=S)NC2=O)cc(CN2CCCC2)c1O` , thanks.
Reply text: 103

Inquiry: Need growth of `C[C@@H]1CN(c2cnc(C(=O)Nc3cc(F)cc4cccnc34)cn2)C[C@H](C)N1` , thanks.
Reply text: 44.8

Inquiry: Need growth of `COc1ccc(C/C(C)=C(\c2ccc(Cl)cc2)c2ccc(OCCN3CCCC3)cc2)cc1` , thanks.
Reply text: 98.1

Inquiry: Need growth of `N[C@@H]1CCC[C@H]1NCCCCN1C(=O)c2cccc3cc([N+](=O)[O-])cc(c23)C1=O` , thanks.
Reply text: 11

Inquiry: Need growth of `CN(C)Cc1ccc(NC(=O)c2cncc(C#Cc3cnc(N)c4ncccc34)c2)cc1C(F)(F)F` , thanks.
Reply text: 76.7

Inquiry: Need growth of Cc1nc2sc(C(=O)Nc3ccccn3)c(N)c2cc1C(C)O (centres undefined) , thanks.
Reply text: 85.8

Inquiry: Need growth of `Oc1c(CN2CCC(N3CCOCC3)CC2)cc(Cc2cc(CN3CCC(N4CCOCC4)CC3)c(O)c3ncccc23)c2cccnc12` , thanks.
Reply text: 2.53

Inquiry: Need growth of `CC1=C2[C@@H](CC1)[C@]1(C)O[C@@](C3CCNCC3)(C[C@H]1OC(=O)CO)[C@H]2OC(=O)/C=C/c1ccccc1` , thanks.
Reply text: 92.3

Inquiry: Need growth of `COc1ccc2[nH]cc(-c3nonc3-c3c[nH]c4ccc(Br)cc34)c2c1` , thanks.
Reply text: 74.8

Inquiry: Need growth of `COC(=O)[C@@]12CC=C(C)[C@]3(C[C@H](c4ccoc4)OC3=O)[C@H]1C=C[C@@H](O)[C@@]2(O)C(=O)OC` , thanks.
Reply text: 116

Inquiry: Need growth of `COc1ccc(C/C(C)=C(\c2ccc(O)cc2)c2ccc(OCCN3CCCCC3)cc2)cc1` , thanks.
Reply text: 103

====

Test system: M14 melanoma
Assay: NCI-60 one-dose screen, 48 h (100 = growth as untreated, 0 = no growth, -100 = all killed)
Details: 10 µM unless noted
Compounds without any hit were thinned out: in the full panel of roughly 83,000, 20% have a hit.
quantity_name: growth (%)
Answer in %, number only, no unit symbol.

Inquiry: Need growth of `CCOC(=O)C/C(=N\Nc1cc(=O)[nH]c2ccc(C)cc12)C(=O)OCC` , thanks.
Reply text: 106

Inquiry: Need growth of `COc1ccc(C/C(C)=C(\c2ccc(Cl)cc2)c2ccc(OCCN3CCCC3)cc2)cc1` , thanks.
Reply text: 62.9

Inquiry: Need growth of `C=C(C)[C@@H]1CC[C@]2(C(=O)Nc3ccccn3)CC[C@]3(C)[C@H](CC[C@@H]4[C@@]5(C)CCCNC(C)(C)[C@@H]5CC[C@]43C)[C@@H]12` , thanks.
Reply text: 26.6

Inquiry: Need growth of O=C(O)CC(C(=O)O)/C(=C\c1ccccc1)c1ccccc1 (stereo not given) , thanks.
Reply text: 121

Inquiry: Need growth of Cc1nc2sc(C(=O)Nc3ccccn3)c(N)c2cc1C(C)O (stereo not given) , thanks.
Reply text: 49.3

====

Test system: U251 CNS
Test: NCI-60 one-dose screen, 48 h (100 = growth as untreated, 0 = no growth, -100 = all killed)
Settings: 10 µM unless noted
About 83,000 compounds went through this panel and 20% of them were active in at least one assay; those are over-represented in the sample as a whole.
I'd appreciate it if you could supply growth values for the items below.
Answer in %, number only, no unit symbol.

Inquiry: Need growth of `COCCn1cc(-c2nc(-c3c[nH]c4ncccc34)cs2)c2ccccc21` , thanks.
Reply text: 72

Inquiry: Need growth of `O=C1/C(=C/c2c[nH]c(=O)[nH]c2=O)SC(=S)N1Cc1ccccc1` , thanks.
Reply text: 97.7

Inquiry: Need growth of `COc1ccc2c(O)c(/C=C3\N=Nc4ncccc43)oc2c1C[C@@H]1CCNC[C@H]1F` , thanks.
Reply text: -84.7

Inquiry: Need growth of `O=C(NNc1nc2cc(F)ccc2n2c(CN3CCOCC3)ccc12)c1ccccc1` , thanks.
Reply text: -34.5

Inquiry: Need growth of `COc1cc(/C=C/c2cc(/C=C/c3ccc(O)c(OC)c3)n(C(=O)Nc3ccc(Cl)cc3)n2)ccc1O` , thanks.
Reply text: 4.31

Inquiry: Need growth of `CN(C)c1ccc(CNCCO)cc1` , thanks.
Reply text: 89.4

Inquiry: Need growth of `Cc1c(C(C)(C)O)cn2ncnc(Oc3ccc(NC(=O)Nc4ccc(Cl)c(C(F)(F)F)c4)c(F)c3)c12` , thanks.
Reply text: 47

Inquiry: Need growth of `Cc1cc(NCCCNc2ccnc3cc(Cl)ccc23)nc(Nc2ccc(C(=O)N3CCCCC3)cc2)n1` , thanks.
Reply text: -8.28

Inquiry: Need growth of `Cc1ccc(S(=O)(=O)OC[C@]23CCC(C)(C)C[C@H]2C2=CC[C@@H]4[C@@]5(C)CCCNC(C)(C)[C@@H]5CC[C@@]4(C)[C@]2(C)CC3)cc1` , thanks.
Reply text: -81.1
